Target: HDAC8 (Homo sapiens)
Sequence (Q9BY41 1-377): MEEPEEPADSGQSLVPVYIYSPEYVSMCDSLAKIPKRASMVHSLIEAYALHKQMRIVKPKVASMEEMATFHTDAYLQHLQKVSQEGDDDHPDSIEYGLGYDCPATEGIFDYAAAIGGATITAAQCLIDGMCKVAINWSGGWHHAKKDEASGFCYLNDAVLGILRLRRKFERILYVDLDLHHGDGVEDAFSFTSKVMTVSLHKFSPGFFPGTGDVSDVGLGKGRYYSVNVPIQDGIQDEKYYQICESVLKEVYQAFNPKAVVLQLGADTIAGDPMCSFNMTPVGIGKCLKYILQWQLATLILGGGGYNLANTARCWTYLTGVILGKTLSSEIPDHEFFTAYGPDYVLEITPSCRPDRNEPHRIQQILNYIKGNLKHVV
Assay: HDAC isoform inhibitory assay, HDAC8
reported metric: IC50 (µM)
Reply numerically in µM, unit not repeated.

Prompt: Look up IC50: O=C(NO)c1ccc(CNC(=O)c2ccc(-c3cc4c(cc3NC(=O)c3ccccc3F)OCO4)cc2)cc1
Response: 0.304
